# Test system: NCI/ADR-RES ovarian
# procedure-text: NCI tumour cell line growth inhibition, 48 h; in the data active = GI50 below about 0.43 µM; inactive = the rest
Would you mind answering with one of these outcomes? active, inactive

Check the results log: what was the call for O=S(=O)(NCCNc1nccc(-c2c(-c3ccc(F)c(O)c3)nc3sccn23)n1)c1ccc(F)cc1 ?
inactive

Check the results log: what was the call for O=S(=O)(NC1=NCCN1C(=S)SN1CCn2c1nsc2=S)c1cccc2ccccc12 ?
inactive

Check the results log: what was the call for COc1ccc2c(=O)cc(-c3ccccc3)[nH]c2c1 ?
inactive

Check the results log: what was the call for CCCCCCCCCCCCCCCCCC1=NC(C)(C)CN1CC(C)O (configuration not stated) ?
inactive

Check the results log: what was the call for C[C@@H]1C[C@H](C)CN(S(=O)(=O)c2ccc3c(NO)c4ccc(S(=O)(=O)N5C[C@H](C)C[C@H](C)C5)cc4c(N=O)c3c2)C1 ?
active

Check the results log: what was the call for COc1ccc2cc(/C=C/C(=O)c3ccc(Cl)cc3Cl)ccc2c1 ?
inactive

Check the results log: what was the call for C=CCn1c(C)nc2ccc(Nc3nc(Nc4ccc(F)cc4)nc4ccccc34)cc21 ?
inactive

* * *

Give TGI for every item shown.
# Test system: SNB-19 CNS
# procedure-text: NCI tumour cell line growth inhibition, 48 h
State the answer as a number, implicitly in µM.

Field TGI (entry O=C1c2ccccc2-[n+]2ccc3c([nH]c4ccccc43)c21 ) reads 2.27

Field TGI (entry Cc1nc(N)nc2c1CCC(O)S2 (stereo unspecified) ) reads 41.1

Field TGI (entry Cc1c2ccncc2cc2c1[nH]c1ccccc12 ) reads 34.7

Field TGI (entry CCCCCCCCOC(=O)CC[C@@H](C)[C@H]1CC[C@H]2[C@@H]3[C@H](OC(=O)CCN)C[C@@H]4C[C@H](OC(=O)CCN)CC[C@]4(C)[C@H]3C[C@H](OC(=O)CCN)[C@]12C ) reads 13.8

* * *

# System: SF-268 CNS
# procedure-text: NCI tumour cell line growth inhibition, 48 h; in the data active = GI50 below about 0.43 µM; inactive = the rest
Would you mind answering with one of these outcomes? Yes = active, No = inactive

Check the results log: what was the call for Cc1nc(-c2ccccc2)n2nc(NCCCN3CCOCC3)ncc12 ?
No

Check the results log: what was the call for CCC(O)c1ccc(Br)cc1NC(=O)c1cccc(Cl)c1 (stereo unspecified) ?
No

Check the results log: what was the call for CCNc1cc(-c2cccc(OC(F)(F)F)c2)nc2ccc(N3CCCC3)cc12 ?
No

Check the results log: what was the call for O=S(=O)(NC1=NCCN1C(=S)SN1CCn2c1nsc2=S)c1cccc2ccccc12 ?
No

Check the results log: what was the call for [C](#Cc1ccccc1)[Hg][C]#Cc1ccccc1 ?
No

Check the results log: what was the call for COc1ccc(/C=C/C(=O)/C=C/c2cc3ccccc3[nH]c2=O)cc1 ?
No

Check the results log: what was the call for CCCCCCCCCCCCCCCCCC1=NC(C)(C)CN1CC(C)O (stereo unspecified) ?
No

Check the results log: what was the call for Cn1c(-c2c(N)n(Nc3cccc(Cl)c3)c3nc(C#N)c(C#N)nc23)nc2ccccc21 ?
No

Check the results log: what was the call for Cn1c(C(=O)c2ccncc2)cc2ccccc21 ?
No

Check the results log: what was the call for CN(CCCCCl)P(=O)(OCCS(=O)(=O)CC(NC(=O)CCC(N)C(=O)O)C(=O)NC(C(=O)O)c1ccccc1)OCC1OC(n2ccc(N)nc2=O)C(F)(F)C1O (stereo unspecified) ?
Yes

Check the results log: what was the call for Nc1ccccc1C#C/C=C\C#Cc1ccc(OCCCNC(=O)c2cc3ccccc3[nH]2)cc1 ?
No

* * *

# Tested on: SW-620 colon
# procedure-text: NCI tumour cell line growth inhibition, 48 h
recorded-endpoint: GI50

Field GI50 (entry S=c1snc2n1CCN2 ) reads 40.5 µM

Field GI50 (entry O=C(O)c1ccc(NCn2nc(-c3ccccc3O)oc2=S)cc1 ) reads 38.9 µM

Field GI50 (entry Cc1nc(N)nc2c1CCC(O)S2 (stereo not given) ) reads 3.64 µM

Field GI50 (entry CCC(O)c1ccc(Br)cc1NC(=O)c1cccc(Cl)c1 (stereo not given) ) reads 26.6 µM

Field GI50 (entry COc1ccc(NC(=O)CSC2=C(Nc3cccc(Br)c3)C(=O)N(Cc3ccccc3)C2=O)cc1Cl ) reads > 100 µM

Field GI50 (entry Cn1c(-c2c(N)n(Nc3cccc(Cl)c3)c3nc(C#N)c(C#N)nc23)nc2ccccc21 ) reads 7.94 µM

Field GI50 (entry Cc1nc(-c2ccccc2)n2nc(NCCCN3CCOCC3)ncc12 ) reads > 25 µM

Field GI50 (entry O=C(/C=C/c1ccccc1)C(Br)C(Br)c1ccccc1 (stereo not given) ) reads 0.402 µM

Field GI50 (entry COc1cc2c(c(OC)c1OC)-c1ncc3c(OC)c(OC)c(OC)cc3c1C2 ) reads 37 µM

Field GI50 (entry CCC[CH2][Sn]([Cl])([Cl])[CH2]CCC ) reads 0.333 µM

* * *

# System: UACC-62 melanoma
# procedure-text: NCI tumour cell line growth inhibition, 48 h
Give TGI for every item shown.
State the answer as a number, implicitly in µM.

The reported TGI value, UACC-62 melanoma, for O=S(=O)(NCCNc1nccc(-c2c(-c3ccc(F)c(O)c3)nc3sccn23)n1)c1ccc(F)cc1 reads 9.82

The reported TGI value, UACC-62 melanoma, for COc1ccc2cc(/C=C/C(=O)c3ccc(Cl)cc3Cl)ccc2c1 reads 79.4

The reported TGI value, UACC-62 melanoma, for C=CCn1c(C)nc2ccc(Nc3nc(Nc4ccc(F)cc4)nc4ccccc34)cc21 reads 3.7

The reported TGI value, UACC-62 melanoma, for C[C@@H]1C[C@H](C)CN(S(=O)(=O)c2ccc3c(NO)c4ccc(S(=O)(=O)N5C[C@H](C)C[C@H](C)C5)cc4c(N=O)c3c2)C1 reads 0.345

* * *

# Tested on: SF-295 CNS
# procedure-text: NCI tumour cell line growth inhibition, 48 h
recorded-endpoint: TGI

Field TGI (entry COc1ccc(/C=C/C(=O)/C=C/c2cc3ccccc3[nH]c2=O)cc1 ) reads 8.02 µM

Field TGI (entry NC1=C(NC(=O)Cc2ccccc2F)C(=O)c2ccccc2C1=O ) reads > 100 µM

Field TGI (entry O=C(c1nc2ccc([N+](=O)[O-])cc2[nH]c1=O)C(O)c1ccc2c(c1)OCO2 (stereo unspecified) ) reads > 100 µM

Field TGI (entry Cc1ccc(/C=N/n2c(-c3ccc(C)cc3)n[nH]c2=O)cc1 ) reads > 100 µM

Field TGI (entry CCOC(=O)c1[nH]c(Br)c(-c2ccc(OC)c(OC)c2)c1Br ) reads 0.0356 µM

Field TGI (entry Cc1ccc2c(c1)C(=O)c1nc(C)ccc1C2=O ) reads > 100 µM

* * *

# System: NCI/ADR-RES ovarian
# procedure-text: NCI tumour cell line growth inhibition, 48 h
Give TGI for every item shown.

Field TGI (entry Nc1[nH]nc(Nc2ccc(Cl)cc2)c1P(=O)(c1ccccc1)c1ccccc1 ) reads 52.3 µM

Field TGI (entry COc1cc2c(cc1OC)C(=O)N(c1ccc(O)cc1)C2=O ) reads > 100 µM

Field TGI (entry C#C/C=C\CCCC/C=C\C#CC#CCCCC#CC#C[C@H](COS(=O)(=O)O)OS(=O)(=O)O ) reads > 100 µM

Field TGI (entry CC(=O)c1ccc2c(c1)C1C=CCC1[C@H](c1cc3c(cc1Br)OCO3)N2 (stereo partly specified) ) reads 4.71 µM

Field TGI (entry O=C1c2cc(Cl)ccc2NC(=NC2CCCC2)C2CSCN12 (stereo unspecified) ) reads > 100 µM

Field TGI (entry CN(C)c1ccc(/C=C2\N=C(NNc3ccccc3)NC2=O)cc1 ) reads > 100 µM

Field TGI (entry CC(=O)OC12C3C4C1C1C2C3C41OC(C)=O (stereo unspecified) ) reads > 100 µM

Field TGI (entry Cc1ccc(SC2C(=O)C3CC(OCc4ccccc4)C2(C)C3(C)C)cc1 (stereo unspecified) ) reads > 100 µM

Field TGI (entry COC(=O)CCC1=C(CC(=O)OC)C(C)(OC)N=C1NC(=O)OCc1ccccc1 (stereo unspecified) ) reads > 100 µM

Field TGI (entry COc1ccc(-n2[nH]nc(C(N)=O)c2=O)cc1 ) reads > 100 µM

Field TGI (entry CC(C)(C)OC(=O)NC1CC2(C=C(Br)C(=O)C(Br)=C2)OC1=O (stereo unspecified) ) reads 34.8 µM

* * *

# Test system: NCI-H226 lung
# procedure-text: NCI tumour cell line growth inhibition, 48 h; in the data active = GI50 below about 0.43 µM; inactive = the rest
Would you mind answering with one of these outcomes? active, inactive

Check the results log: what was the call for O=c1c2cc(F)ccc2sc2c(N3CCNCC3)nc3ccc(F)cc3c12 ?
inactive

Check the results log: what was the call for COc1ccc(/C=C/C(=O)/C=C/c2cc3ccccc3[nH]c2=O)cc1 ?
inactive

Check the results log: what was the call for O=S(=O)(NCCNc1nccc(-c2c(-c3ccc(F)c(O)c3)nc3sccn23)n1)c1ccc(F)cc1 ?
inactive

Check the results log: what was the call for CCOC(=O)Nc1nc2ccc(OC)cc2s1 ?
inactive

Check the results log: what was the call for CCC[CH2][Sn]([Cl])([Cl])[CH2]CCC ?
inactive

Check the results log: what was the call for COc1ccccc1C#Cc1ccccc1C#CCCCCO ?
inactive

Check the results log: what was the call for Cc1ncc(C(=O)Nc2ccc(CN3CCN(C)CC3)c(C(F)(F)F)c2)cc1C#Cc1cnc2cccnn12 ?
active

Check the results log: what was the call for NS(=O)(=O)c1ccc(-n2nc3c(c2-c2ccc(Cl)cc2)Cc2ccccc2-3)cc1 ?
inactive

Check the results log: what was the call for COc1ccc(NC(=O)CSC2=C(Nc3cccc(Br)c3)C(=O)N(Cc3ccccc3)C2=O)cc1Cl ?
inactive

Check the results log: what was the call for Cc1nc(-c2ccccc2)n2nc(NCCCN3CCOCC3)ncc12 ?
inactive
